The values you see were collected from the supplement of paper PMC6755084.

B1: F1*; the commonest letter at each place (parent)
chain: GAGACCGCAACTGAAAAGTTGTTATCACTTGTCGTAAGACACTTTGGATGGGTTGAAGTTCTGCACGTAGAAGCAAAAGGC

# Variants of: B1
# measurement_description: fraction ligated after 30 min (ligated reads / total reads); higher = more ligase activity
# condition_set: with F1*sub RNA substrate (template-directed ligation), 42 °C
Binning of fraction ligated into classes: low: < 0.7; medium: ≥ 0.7 and < 0.8; high: ≥ 0.8

C42G T44G : high
A41C C42A : high
T25A G38T : low

INPUT: Kindly state the category for this variant: C26A C42A
OUTPUT: medium

INPUT: Kindly state the category for this variant: T25A G47A
OUTPUT: low

INPUT: Kindly state the category for this variant: A39C A41G
OUTPUT: medium
